# Tested on: SK-BR-3
# Protocol text: SRB colorimetric cell growth inhibition assay, SK-BR-3
# Assay type: cell-based
# Measurement parameters: Homo sapiens, SK-BR-3, SK-BR-3; LC=cell killing (cytotoxic effect); read-out: LC50 SK-BR-3
Recorded endpoint: CC50 (µM)
Answer with a number only, understood to be in µM.

Record excerpt, results attached:
COc1cc2c(cc1OC)-c1c(-c3ccc(OC(=O)CCCC[C@@H]4SC[C@@H]5NC(=O)N[C@@H]54)c(OC)c3)c3c4cc(OC)c(OC(=O)CCCC[C@@H]5SC[C@@H]6NC(=O)N[C@@H]65)cc4oc(=O)c3n1CC2 : 10.3
COc1cc(-c2c3n(c4c(=O)oc5cc(O)c(OC)cc5c24)CCc2cc(O)c(OC)cc2-3)ccc1O : 19
COc1cc(-c2c3c4cc(OC)c(O)cc4oc(=O)c3n3ccc4c([N+](=O)[O-])cccc4c23)ccc1O : 20.1

Quick note, CC50 for `COc1cc(-c2c3n(c4c(=O)oc5cc(OC(=O)[C@H](C)N)c(OC)cc5c24)CCc2c-3cc(OC)c(OC)c2OC(=O)[C@H](C)N)ccc1OC(=O)[C@H](C)N` landed at 5.47

Quick note, CC50 for `COc1cc(-c2c3c4cc(OC)c(OC(=O)[C@@H](N)CC(C)C)cc4oc(=O)c3n3ccc4c(OC(=O)[C@@H](N)CC(C)C)c(OC)c(OC)cc4c23)ccc1OC(=O)[C@@H](N)CC(C)C` landed at 11.5

Quick note, CC50 for `COc1cc2c(cc1OC)-c1c(-c3ccc(OS(C)(=O)=O)c(OC)c3)c3c4cc(OC)c(OS(C)(=O)=O)cc4oc(=O)c3n1CC2` landed at 14.9

Quick note, CC50 for `COc1cc(-c2c3n(c4c(=O)oc5cc(OC(=O)[C@@H]6CCCN6)c(OC)cc5c24)CCc2c-3cc(OC)c(OC)c2OC(=O)[C@@H]2CCCN2)ccc1OC(=O)[C@@H]1CCCN1` landed at 6.25

Quick note, CC50 for `COc1cc2c(cc1OC)-c1c(-c3ccc(OC(=O)[C@H](Cc4ccccc4)NC(=O)OC(C)(C)C)c(OC)c3)c3c4cc(OC)c(OC(=O)[C@H](Cc5ccccc5)NC(=O)OC(C)(C)C)cc4oc(=O)c3n1CC2` landed at 9.9

Quick note, CC50 for `COc1cc(-c2c3n(c4c(=O)oc5cc(OC(=O)c6cc(F)c(F)c(F)c6F)c(OC)cc5c24)CCc2c-3cc(OC)c(OC)c2OC(=O)c2cc(F)c(F)c(F)c2F)ccc1OC(=O)c1cc(F)c(F)c(F)c1F` landed at 9.44

Quick note, CC50 for `COc1cc2ccn3c(c(-c4ccc(OS(=O)(=O)C(F)(F)F)c(OC)c4)c4c5cc(OC)c(OS(=O)(=O)C(F)(F)F)cc5oc(=O)c43)c2cc1OC` landed at 1.29

---

# Tested on: LNCaP
# Protocol text: SRB colorimetric cell growth inhibition assay, LNCaP
# Assay type: cell-based
# Measurement parameters: Homo sapiens, LNCaP, LN-caP; cell killing (cytotoxic effect); read-out: LC50 LN-caP
# Procedure: The finality of these assays is to interrupt the growth of an “in vitro” tumor cell culture by means a continued exhibition of the cells to the sample to be testing. A colorimetric type of assay, using sulforhodamine B (SRB) reaction has been adapted for a quantitative measurement of cell growth and viability (following the technique described by P. A. Skehan, et al., J. Natl. Cancer Inst. 1990, 82, 1107-1112). […] The values for mean +/− SD of data from triplicate wells are calculated. […]
Property: log10 of CC50; scope: individual compounds
The base-10 logarithm of CC50, taken with CC50 in µM, is what appears here.

Record excerpt, results attached:
COc1cc2c(cc1O)oc(=O)c1c2c(-c2cccc([N+](=O)[O-])c2)c2c3cc(OC)c(O)cc3ccn21 : 1.30
COc1cc(-c2c3n(c4c(=O)[nH]c5cc(O)c(OC)cc5c24)CCc2cc(O)c(OC)cc2-3)ccc1O : 0.27
COc1cc(-c2c3c4cc(OC)c(OC(=O)[C@H](N)C(C)C)cc4oc(=O)c3n3ccc4cc(OC(=O)[C@H](N)C(C)C)c(OC)cc4c23)ccc1OC(=O)[C@H](N)C(C)C : -0.22
COc1cc(-c2c3c4cc(OC)c(OC(=O)[C@@H](N)CC(C)C)cc4oc(=O)c3n3ccc4cc(OC(=O)[C@@H](N)CC(C)C)c(OC)cc4c23)ccc1OC(=O)[C@@H](N)CC(C)C : -0.17
COc1cc2c(cc1O)oc(=O)c1c2c(-c2ccc(OC)c(OC)c2)c2c3cc(OC)c(O)cc3ccn21 : 0.57

Quick note, log10 of CC50 for `COc1cc(-c2c3n(c4c(=O)oc5cc(OC(=O)[C@@H](N)Cc6c[nH]c7ccccc67)c(OC)cc5c24)CCc2cc(OC(=O)[C@@H](N)Cc4c[nH]c5ccccc45)c(OC)cc2-3)ccc1OC(=O)[C@@H](N)Cc1c[nH]c2ccccc12` landed at 0.59

Quick note, log10 of CC50 for `COc1cc2c(cc1O)CCn1c-2cc2c3cc(OC)c(O)cc3oc(=O)c21` landed at 0.99

Quick note, log10 of CC50 for `COc1cc(-c2c3n(c4c(=O)oc5cc(OC(=O)[C@H](NC(=O)OC(C)(C)C)C(C)C)c(OC)cc5c24)CCc2cc(OC(=O)[C@H](NC(=O)OC(C)(C)C)C(C)C)c(OC)cc2-3)ccc1OC(=O)[C@H](NC(=O)OC(C)(C)C)C(C)C` landed at 0.61

Quick note, log10 of CC50 for `COc1cc(-c2c3c4cc(OC)c(OC(=O)[C@@H](N)C(C)C)cc4oc(=O)c3n3ccc4cc(OC(=O)[C@@H](N)C(C)C)c(OC)cc4c23)ccc1OC(=O)[C@@H](N)C(C)C` landed at -0.37

Quick note, log10 of CC50 for `COc1cc(-c2c3c4cc(OC)c(O)cc4oc(=O)c3n3ccc4cc(OC)c(OC)cc4c23)ccc1O` landed at 1.17
